Please provide measured Fold of changes in relative LHPP mRNA expression level (log2) for the entries that follow.
tested on: LHPP gene; test: High-throughput screening of saRNAs targeting LHPP promoter: LHPP mRNA by one-step RT-qPCR in Huh7 cells; format: cell-based, human; conditions: 10 nM saRNA, 72 hours, relative to control (Mock)
d = 2'-deoxy (DNA); r = 2'-OH (RNA)
# number only, unit log2 dropped from output

Quick check: Fold of changes in relative LHPP mRNA expression level (log2) of RAG7-150: saRNA duplex; sense UGUUUUCUGCUUUUCCUGCTT (SEQ ID NO: 32), antisense GCAGGAAAAGCAGAAAACATT (SEQ ID NO: 196) (sugars from the 5' end r19 d2, backbone not given here) ?
0.56

Try this substance next: RAG7-745: saRNA duplex; sense AAAACCUCCUGGGUUUAACTT (SEQ ID NO: 154), antisense GUUAAACCCAGGAGGUUUUTT (SEQ ID NO: 318) (sugars from the 5' end r19 d2, backbone not given here)
0.15

Also check RAG7-93: saRNA duplex; sense AAGGACACCGUUUCAGGGGTT (SEQ ID NO: 144), antisense CCCCUGAAACGGUGUCCUUTT (SEQ ID NO: 308) (sugars from the 5' end r19 d2, backbone not given here)
0.19

Another substance: RAG7-706: saRNA duplex; sense UCUUCUCAGCCCAGGUCCUTT (SEQ ID NO: 15), antisense AGGACCUGGGCUGAGAAGATT (SEQ ID NO: 179) (sugars from the 5' end r19 d2, backbone not given here)
0.70

###

system: LHPP gene; assay: High-throughput screening of saRNAs targeting LHPP promoter: LHPP mRNA by one-step RT-qPCR in Huh7 cells; format: cell-based, human; conditions: 10 nM saRNA, 72 hours, relative to control (Mock)
d = 2'-deoxy (DNA); r = 2'-OH (RNA)
Could you please report measured Fold of changes in relative LHPP mRNA expression level for the items listed next?

Would you kindly share the measured Fold of changes in relative LHPP mRNA expression level for RAG7-848: saRNA duplex; sense GAAAGGUUCCGAGGGGCCATT (SEQ ID NO: 87), antisense UGGCCCCUCGGAACCUUUCTT (SEQ ID NO: 251) (sugars from the 5' end r19 d2, backbone not given here) ?
1.25 fold

Proceed to RAG7-690: saRNA duplex; sense CCUAUGCAUCCUCAUCUAUTT (SEQ ID NO: 42), antisense AUAGAUGAGGAUGCAUAGGTT (SEQ ID NO: 206) (sugars from the 5' end r19 d2, backbone not given here)
1.42 fold

Another substance to look at: RAG7-98: saRNA duplex; sense CCGAAAAGGACACCGUUUCTT (SEQ ID NO: 145), antisense GAAACGGUGUCCUUUUCGGTT (SEQ ID NO: 309) (sugars from the 5' end r19 d2, backbone not given here)
1.14 fold

Moving on to the next substance: RAG7-778: saRNA duplex; sense UGUAGCAUCGAGUGGUAUUTT (SEQ ID NO: 70), antisense AAUACCACUCGAUGCUACATT (SEQ ID NO: 234) (sugars from the 5' end r19 d2, backbone not given here)
1.29 fold

###

test system: LHPP gene; assay: High-throughput screening of saRNAs targeting LHPP promoter: LHPP mRNA by one-step RT-qPCR in Huh7 cells; format: cell-based, human; conditions: 10 nM saRNA, 72 hours, relative to control (Mock)
d = 2'-deoxy (DNA); r = 2'-OH (RNA)
I'd appreciate it if you could supply Fold of changes in relative LHPP mRNA expression level (log2) values for the items below.
Provide only the numeric value, understood in log2.

What Fold of changes in relative LHPP mRNA expression level (log2) value was documented for this substance, RAG7-710: saRNA duplex; sense GUUUUCUUCUCAGCCCAGGTT (SEQ ID NO: 122), antisense CCUGGGCUGAGAAGAAAACTT (SEQ ID NO: 286) (sugars from the 5' end r19 d2, backbone not given here) ?
0.24

Then RAG7-95: saRNA duplex; sense AAAAGGACACCGUUUCAGGTT (SEQ ID NO: 12), antisense CCUGAAACGGUGUCCUUUUTT (SEQ ID NO: 176) (sugars from the 5' end r19 d2, backbone not given here) ?
0.74

Consider next the substance RAG7-738: saRNA duplex; sense CCUGGGUUUAACGCAUUGUTT (SEQ ID NO: 159), antisense ACAAUGCGUUAAACCCAGGTT (SEQ ID NO: 323) (sugars from the 5' end r19 d2, backbone not given here) in the same way.
0.15

Here is the next substance: RAG7-107: saRNA duplex; sense AGAAAGCUUCCGAAAAGGATT (SEQ ID NO: 156), antisense UCCUUUUCGGAAGCUUUCUTT (SEQ ID NO: 320) (sugars from the 5' end r19 d2, backbone not given here)
0.15

And what about the substance RAG7-839: saRNA duplex; sense CGAGGGGCCAUUGAGGAAATT (SEQ ID NO: 158), antisense UUUCCUCAAUGGCCCCUCGTT (SEQ ID NO: 322) (sugars from the 5' end r19 d2, backbone not given here) ?
0.15

Same lookup for RAG7-691: saRNA duplex; sense UCCUAUGCAUCCUCAUCUATT (SEQ ID NO: 30), antisense UAGAUGAGGAUGCAUAGGATT (SEQ ID NO: 194) (sugars from the 5' end r19 d2, backbone not given here) , please.
0.58

Could you do the same for RAG7-887: saRNA duplex; sense GACCAGAAGUAAAGUGUUCTT (SEQ ID NO: 51), antisense GAACACUUUACUUCUGGUCTT (SEQ ID NO: 215) (sugars from the 5' end r19 d2, backbone not given here) , please?
0.46

Try this substance next: RAG7-852: saRNA duplex; sense ACUUGAAAGGUUCCGAGGGTT (SEQ ID NO: 128), antisense CCCUCGGAACCUUUCAAGUTT (SEQ ID NO: 292) (sugars from the 5' end r19 d2, backbone not given here)
0.22

###

test system: LHPP gene; assay: High-throughput screening of saRNAs targeting LHPP promoter: LHPP mRNA by one-step RT-qPCR in Huh7 cells; assay type: cell-based, human; details: 10 nM saRNA, 72 hours, relative to control (Mock)
d = 2'-deoxy (DNA); r = 2'-OH (RNA)
Reported endpoint: Fold of changes in relative LHPP mRNA expression level (fold)
Output spec: scalar in fold, unitless text.

Which measured Fold of changes in relative LHPP mRNA expression level belongs to RAG7-884: saRNA duplex; sense CAGAAGUAAAGUGUUCUCGTT (SEQ ID NO: 101), antisense CGAGAACACUUUACUUCUGTT (SEQ ID NO: 265) (sugars from the 5' end r19 d2, backbone not given here) , tested on LHPP gene?
1.22

Follow-up entry: RAG7-892: saRNA duplex; sense UGUUGGACCAGAAGUAAAGTT (SEQ ID NO: 2), antisense CUUUACUUCUGGUCCAACATT (SEQ ID NO: 166) (sugars from the 5' end r19 d2, backbone not given here)
2.05

Can you check RAG7-43: saRNA duplex; sense CAGUUCCGGGUUUGCACCCTT (SEQ ID NO: 93), antisense GGGUGCAAACCCGGAACUGTT (SEQ ID NO: 257) (sugars from the 5' end r19 d2, backbone not given here) next?
1.23

Please do the same for RAG7-93: saRNA duplex; sense AAGGACACCGUUUCAGGGGTT (SEQ ID NO: 144), antisense CCCCUGAAACGGUGUCCUUTT (SEQ ID NO: 308) (sugars from the 5' end r19 d2, backbone not given here) as well.
1.14

Also need RAG7-917: saRNA duplex; sense UCUCUUCUUUGAAAGCUCATT (SEQ ID NO: 64), antisense UGAGCUUUCAAAGAAGAGATT (SEQ ID NO: 228) (sugars from the 5' end r19 d2, backbone not given here) , thanks.
1.32

One more substance: RAG7-184: saRNA duplex; sense UGUCUCAAUUUGCCUUUGATT (SEQ ID NO: 16), antisense UCAAAGGCAAAUUGAGACATT (SEQ ID NO: 180) (sugars from the 5' end r19 d2, backbone not given here)
1.59

Query RAG7-670: saRNA duplex; sense CAGGGCUGUUAUCUGCAUATT (SEQ ID NO: 136), antisense UAUGCAGAUAACAGCCCUGTT (SEQ ID NO: 300) (sugars from the 5' end r19 d2, backbone not given here) next
1.15

Try this substance too: RAG7-132: saRNA duplex; sense CUCUUUGUCCGCUGAUCUCTT (SEQ ID NO: 4), antisense GAGAUCAGCGGACAAAGAGTT (SEQ ID NO: 168) (sugars from the 5' end r19 d2, backbone not given here)
1.86

Continue with RAG7-695: saRNA duplex; sense CAGGUCCUAUGCAUCCUCATT (SEQ ID NO: 54), antisense UGAGGAUGCAUAGGACCUGTT (SEQ ID NO: 218) (sugars from the 5' end r19 d2, backbone not given here)
1.36

Next: RAG7-847: saRNA duplex; sense AAAGGUUCCGAGGGGCCAUTT (SEQ ID NO: 34), antisense AUGGCCCCUCGGAACCUUUTT (SEQ ID NO: 198) (sugars from the 5' end r19 d2, backbone not given here)
1.48

Now consider RAG7-104: saRNA duplex; sense AAGCUUCCGAAAAGGACACTT (SEQ ID NO: 43), antisense GUGUCCUUUUCGGAAGCUUTT (SEQ ID NO: 207) (sugars from the 5' end r19 d2, backbone not given here) and answer again.
1.41

What do you have for RAG7-175: saRNA duplex; sense UUGCCUUUGACCUUUCUUATT (SEQ ID NO: 60), antisense UAAGAAAGGUCAAAGGCAATT (SEQ ID NO: 224) (sugars from the 5' end r19 d2, backbone not given here) ?
1.34

Field entry: RAG7-170: saRNA duplex; sense UUUGACCUUUCUUAGGGACTT (SEQ ID NO: 132), antisense GUCCCUAAGAAAGGUCAAATT (SEQ ID NO: 296) (sugars from the 5' end r19 d2, backbone not given here)
1.16

Now this one: RAG7-174: saRNA duplex; sense UGCCUUUGACCUUUCUUAGTT (SEQ ID NO: 49), antisense CUAAGAAAGGUCAAAGGCATT (SEQ ID NO: 213) (sugars from the 5' end r19 d2, backbone not given here)
1.38

What about RAG7-886: saRNA duplex; sense ACCAGAAGUAAAGUGUUCUTT (SEQ ID NO: 25), antisense AGAACACUUUACUUCUGGUTT (SEQ ID NO: 189) (sugars from the 5' end r19 d2, backbone not given here) ?
1.52

Would you mind doing RAG7-899: saRNA duplex; sense AAAGCUAUGUUGGACCAGATT (SEQ ID NO: 84), antisense UCUGGUCCAACAUAGCUUUTT (SEQ ID NO: 248) (sugars from the 5' end r19 d2, backbone not given here) as well?
1.26
